Assay: In vivo screen APCC: blood cholesterol in rats fed a high fat, high cholesterol diet with 0.5% cholic acid
Design: species or system male Sprague-Dawley rats
Conditions: 16 h, rat, 30 mg/kg unless otherwise noted, dosed at 4 PM, high cholesterol diet overnight, blood sampled at 8 AM, read-out: APCC (% .increment.TC)
metric: change in vivo at 30 mg/kg (%)
Supply the numeric figure in %, leaving out any unit text.

// change in vivo at 30 mg/kg lookup, key: CCCCCCCCCCCCCCS(=O)(=O)NC(=O)Nc1ccc(F)cc1F [Example 10]
-14

Also CCCCCCCCCCCCS(=O)(=O)N(C)C(=O)Nc1c(C(C)C)cccc1C(C)C [Example 11] ?
-49

Can you check CCCCCCCCCCCCCCCCS(=O)(=O)NC(=O)Nc1c(C(C)C)cccc1C(C)C [Example 7] next?
-64

Could you do the same for CCCCCCCCCCCCS(=O)(=O)NC(=O)Nc1c(C(C)C)cccc1C(C)C [Example 6] , please?
-63

Similarly, CCCCCCCCCCCCCCS(=O)(=O)NC(=O)Nc1c(C(C)C)cccc1C(C)C [Example 2] ?
-56

CCCCCCCCCCS(=O)(=O)NC(=O)Nc1c(C(C)C)cccc1C(C)C [Example 8] , same question.
-31

====

Assay: In vivo screen APCC: blood cholesterol in rats fed a high fat, high cholesterol diet with 0.5% cholic acid
Set-up: species or system male Sprague-Dawley rats
Settings: 16 h, rat, 30 mg/kg unless otherwise noted, dosed at 4 PM, high cholesterol diet overnight, blood sampled at 8 AM, read-out: APCC (% .increment.TC)
metric: change in vivo at 30 mg/kg (%)
Could you give me the number in %? Just the number is fine.

CCCCCCCCCCCCCC(c1ccccc1)S(=O)(=O)NC(=O)Nc1c(C(C)C)cccc1C(C)C (stereo not shown); -72
CCCCCCCCC(c1ccccc1)S(=O)(=O)NC(=O)Nc1c(C(C)C)cccc1C(C)C (stereo not shown); -75
CCCCCCCCCCCCCCS(=O)(=O)N(C)C(=O)Nc1c(C(C)C)cccc1C(C)C; -34

Then this compound:
// query change in vivo at 30 mg/kg value for entry CCCCCCCCCCCCCC(C)S(=O)(=O)NC(=O)Nc1c(C(C)C)cccc1C(C)C (stereo not shown)
-76

Data provenance is patent US5254589A.
